- PROTOCOL_NOTES: Probe fluorescence ratio response to linolenic acid relative to ADIFAB2
- Assay type: binding
- EXPERIMENTAL_PARAMETERS: response relative to ADIFAB2
Decide using DR/DR LNA alone. Strictly below 1: 1 (yes). Equal to or above 1: 0 (no).

// known answers, use as guide
MOLECULE | QUALITATIVE_LABEL
102P, 72A (protein, listed as Rattus norvegicus, PEPTIDE (1)...(131) wild-type rat intestinal fatty acid binding protein) AFDGTWKVDRNENYEKFMEKMGINVVKRKLGAHDNLKLTITQEGNKFTVKESSNFRNIDVVFELGVDFAYSAADGTELTGTWTMEGNKLVGKFKRVDNGKEPIAVREISGNELIQTYTYEGVEAKRIFKKE | 1 (yes)
119F, 72A (protein, listed as Rattus norvegicus, PEPTIDE (1)...(131) wild-type rat intestinal fatty acid binding protein) AFDGTWKVDRNENYEKFMEKMGINVVKRKLGAHDNLKLTITQEGNKFTVKESSNFRNIDVVFELGVDFAYSAADGTELTGTWTMEGNKLVGKFKRVDNGKELIAVREISGNELIQTYTFEGVEAKRIFKKE | 1 (yes)
72S 73V 74V (protein, listed as Rattus norvegicus, PEPTIDE (1)...(131) wild-type rat intestinal fatty acid binding protein) AFDGTWKVDRNENYEKFMEKMGINVVKRKLGAHDNLKLTITQEGNKFTVKESSNFRNIDVVFELGVDFAYSSVVGTELTGTWTMEGNKLVGKFKRVDNGKELIAVREISGNELIQTYTYEGVEAKRIFKKE | 0 (no)
106T2, 72A (protein, listed as Rattus norvegicus, PEPTIDE (1)...(131) wild-type rat intestinal fatty acid binding protein) AFDGTWKVDRNENYEKFMEKMGINVVKRKLGAHDNLKLTITQEGNKFTVKESSNFRNIDVVFELGVDFAYSAADGTELTGTWTMEGNKLVGKFKRVDNGKELIAVTEISGNELIQTYTYEGVEAKRIFKKE | 1 (yes)

In: Please check: DR/DR LNA for 47H1, L72A (protein, listed as Rattus norvegicus, PEPTIDE (1)...(131) wild-type rat intestinal fatty acid binding protein) AFDGTWKVDRNENYEKFMEKMGINVVKRKLGAHDNLKLTITQEGNKHTVKESSNFRNIDVVFELGVDFAYSAADGTELTGTWTMEGNKLVGKFKRVDNGKELIAVREISGNELIQTYTYEGVEAKRIFKKE , strictly under 1 or not?
Out: 1 (yes)

In: Please check: DR/DR LNA for 78F, 72A (protein, listed as Rattus norvegicus, PEPTIDE (1)...(131) wild-type rat intestinal fatty acid binding protein) AFDGTWKVDRNENYEKFMEKMGINVVKRKLGAHDNLKLTITQEGNKFTVKESSNFRNIDVVFELGVDFAYSAADGTEFTGTWTMEGNKLVGKFKRVDNGKELIAVREISGNELIQTYTYEGVEAKRIFKKE , strictly under 1 or not?
Out: 0 (no)

In: Please check: DR/DR LNA for 51I1, 72A (protein, listed as Rattus norvegicus, PEPTIDE (1)...(131) wild-type rat intestinal fatty acid binding protein) AFDGTWKVDRNENYEKFMEKMGINVVKRKLGAHDNLKLTITQEGNKFTVKISSNFRNIDVVFELGVDFAYSAADGTELTGTWTMEGNKLVGKFKRVDNGKELIAVREISGNELIQTYTYEGVEAKRIFKKE , strictly under 1 or not?
Out: 0 (no)

In: Please check: DR/DR LNA for 117N, 72A (protein, listed as Rattus norvegicus, PEPTIDE (1)...(131) wild-type rat intestinal fatty acid binding protein) AFDGTWKVDRNENYEKFMEKMGINVVKRKLGAHDNLKLTITQEGNKFTVKESSNFRNIDVVFELGVDFAYSAADGTELTGTWTMEGNKLVGKFKRVDNGKELIAVREISGNELIQTNTYEGVEAKRIFKKE , strictly under 1 or not?
Out: 0 (no)

In: Please check: DR/DR LNA for 62G, 72A (protein, listed as Rattus norvegicus, PEPTIDE (1)...(131) wild-type rat intestinal fatty acid binding protein) AFDGTWKVDRNENYEKFMEKMGINVVKRKLGAHDNLKLTITQEGNKFTVKESSNFRNIDVVGELGVDFAYSAADGTELTGTWTMEGNKLVGKFKRVDNGKELIAVREISGNELIQTYTYEGVEAKRIFKKE , strictly under 1 or not?
Out: 0 (no)

In: Please check: DR/DR LNA for 31I1, 72A (protein, listed as Rattus norvegicus, PEPTIDE (1)...(131) wild-type rat intestinal fatty acid binding protein) AFDGTWKVDRNENYEKFMEKMGINVVKRKLIAHDNLKLTITQEGNKFTVKESSNFRNIDVVFELGVDFAYSAADGTELTGTWTMEGNKLVGKFKRVDNGKELIAVREISGNELIQTYTYEGVEAKRIFKKE , strictly under 1 or not?
Out: 1 (yes)

In: Please check: DR/DR LNA for 17G, 72A (protein, listed as Rattus norvegicus, PEPTIDE (1)...(131) wild-type rat intestinal fatty acid binding protein) AFDGTWKVDRNENYEKGMEKMGINVVKRKLGAHDNLKLTITQEGNKFTVKESSNFRNIDVVFELGVDFAYSAADGTELTGTWTMEGNKLVGKFKRVDNGKELIAVREISGNELIQTYTYEGVEAKRIFKKE , strictly under 1 or not?
Out: 1 (yes)

Reference for the values: patent US20060257938A1
